Let's go through some recorded MIC values for Escherichia coli ATCC 25922 together.
Form entry: value (µM) — number only.

COMPOUND: CC(C)C[C@H](NC(=O)[C@H](CCCCN)NC(=O)[C@H](CC(C)C)NC(=O)[C@H](CC(C)C)NC(=O)[C@H](CCCCN)NC(=O)[C@H](CCCCN)NC(=O)[C@@H]1CCCN1C(=O)[C@H](CC(C)C)NC(=O)[C@H](CCCCN)NC(=O)[C@H](CC(C)C)NC(=O)[C@H](CC(C)C)NC(=O)[C@H](CCCCN)NC(=O)[C@H](CCCCN)NC(=O)[C@@H](N)CC(C)C)C(=O)N[C@@H](C)C(=O)NCC(=O)O [LKKLLKLPKKLLKLAG]
SUBJECT_OF_TEST: Escherichia coli ATCC 25922
MIC, µM: 5

input: Name the recorded MIC for CC(C)C[C@H](NC(=O)CNC(=O)[C@H](Cc1ccccc1)NC(=O)[C@H](CC(C)C)NC(=O)[C@H](CCCN=C(N)N)NC(=O)[C@H](CC(C)C)NC(=O)[C@H](Cc1c[nH]c2ccccc12)NC(=O)CNC(=O)CNC(=O)[C@H](CO)NC(=O)[C@H](CCCCN)NC(=O)[C@H](CC(C)C)NC(=O)[C@H](C)NC(=O)[C@@H](N)CC(C)C)C(=O)N[C@@H](CCCCN)C(=O)N[C@@H](CC(=O)O)C(=O)N[C@@H](CCCCN)C(=O)N[C@@H](CCCCN)C(=O)N[C@@H](Cc1cnc[nH]1)C(N)=O [LALKSGGWLRLFGLKDKKH] .
output: 35

====

# System: Streptococcus agalactiae
MEASURED_ENDPOINT: MIC (µM)
Form entry: value (µM) — number only.

input: Name the recorded MIC for `CC[C@H](C)[C@H](NC(=O)[C@H](CC(C)C)NC(=O)[C@@H](NC(=O)[C@@H](N)CC(=O)O)[C@@H](C)CC)C(=O)N[C@H](C(=O)N[C@H](C(=O)NCC(=O)NCC(=O)N[C@@H](CCCCN)C(=O)N[C@@H](CCCN=C(N)N)C(=O)N[C@@H](CCCN=C(N)N)C(=O)N[C@@H](CCCCN)C(=O)N[C@@H](CCCCN)C(=O)N[C@@H](CCCN=C(N)N)C(=O)N[C@@H](CCCN=C(N)N)C(=O)N[C@@H](CCCN=C(N)N)C(N)=O)C(C)C)[C@@H](C)CC` .
output: 4

====

# Test system: Pseudomonas syringae pv. syringae DSM 10604
# ASSAY_NOTES: ≥ marks a high value that may be exact or a test limit, other limits are often not marked, values filed in µg/mL are converted to µM
MEASURED_ENDPOINT: MIC (µM)
Form entry: value (µM) — number only.

Examples with answers:
ITEM_SMILES: CC[C@H](C)[C@H](NC(=O)[C@@H](NC(=O)[C@H](CCCCN)NC(=O)[C@H](CCCCN)NC(=O)[C@@H](NC(=O)[C@@H](NC(=O)[C@H](CCCCN)NC(=O)[C@H](C)NC(=O)[C@H](CCCCN)NC(=O)[C@H](CCCCN)NC(=O)[C@H](CCCCN)NC(=O)[C@@H](N)CCCN=C(N)N)[C@@H](C)CC)[C@@H](C)CC)[C@@H](C)CC)C(N)=O
UNIT_OF_MEASUREMENT: µM
VALUE_OBSERVED: 0.682
--
ITEM_SMILES: CC[C@H](C)[C@H](NC(=O)[C@H](CCCCN)NC(=O)[C@H](CCCCN)NC(=O)[C@H](CC(C)C)NC(=O)[C@H](CCCCN)NC(=O)[C@H](CCCN=C(N)N)NC(=O)[C@@H](N)CC(C)C)C(=O)N[C@@H](CC(C)C)C(=O)N[C@@H](CCCCN)C(=O)N[C@@H](CCCCN)C(=O)N[C@@H](CC(C)C)C(=O)N[C@@H](Cc1ccccc1)C(N)=O
UNIT_OF_MEASUREMENT: µM
VALUE_OBSERVED: 0.164
--
ITEM_SMILES: CC[C@H](C)[C@H](NC(=O)[C@H](CC(C)C)NC(=O)[C@H](CCCN=C(N)N)NC(=O)[C@H](CCCN=C(N)N)NC(=O)[C@H](CC(C)C)NC(=O)[C@@H](NC(=O)[C@H](CCCN=C(N)N)NC(=O)[C@H](CCCN=C(N)N)NC(=O)[C@@H](NC(=O)[C@@H](NC(=O)[C@H](CCCN=C(N)N)NC(=O)[C@@H](N)CC(C)C)[C@@H](C)CC)[C@@H](C)CC)[C@@H](C)CC)C(N)=O
UNIT_OF_MEASUREMENT: µM
VALUE_OBSERVED: 1.57

Proceed to the following item.
input: Give recorded MIC with Pseudomonas syringae pv. syringae DSM 10604 for the following compound: `CC(C)C[C@H](NC(=O)[C@H](CCCCN)NC(=O)[C@H](CC(C)C)NC(=O)[C@H](CCCN=C(N)N)NC(=O)[C@H](CCCCN)NC(=O)[C@H](CCCCN)NC(=O)[C@@H](N)CCCN=C(N)N)C(=O)N[C@@H](CC(C)C)C(=O)N[C@@H](CCCCN)C(=O)N[C@@H](CCCN=C(N)N)C(=O)N[C@@H](CC(C)C)C(=O)N[C@H](C(N)=O)C(C)C`
output: 1.29

====

Let's go through some recorded MIC values for Staphylococcus aureus ATCC 6538P together.
Form entry: value (µM) — number only.

Examples with answers:
ITEM_SMILES: CC[C@H](C)[C@H](NC(=O)[C@H](C)NC(=O)[C@H](CC(C)C)NC(=O)[C@H](CS)NC(=O)[C@H](CC(C)C)NC(=O)[C@H](C)NC(=O)[C@H](C)NC(=O)[C@H](CS)NC(=O)[C@@H](N)CC(C)C)C(=O)NCC(=O)N[C@@H](CCCN=C(N)N)C(=O)N[C@@H](CCCN=C(N)N)C(N)=O
UNIT_OF_MEASUREMENT: µM
MIC: 4.76
//
ITEM_SMILES: CC[C@H](C)[C@H](NC(=O)[C@H](C)NC(=O)[C@H](CC(C)C)NC(=O)[C@H](CCCN=C(N)N)NC(=O)[C@H](CC(C)C)NC(=O)[C@H](C)N)C(=O)N[C@@H](CCCN=C(N)N)C(=O)N[C@@H](CCCN=C(N)N)C(=O)N[C@@H](CCCN=C(N)N)C(N)=O
UNIT_OF_MEASUREMENT: µM
MIC: 1.78

Proceed to the following item.
input: Name the recorded MIC for `CC(C)C[C@H](NC(=O)[C@H](CCCCN)NC(=O)[C@H](CCCCN)NC(=O)[C@H](CC(C)C)NC(=O)[C@H](CC(C)C)NC(=O)[C@H](CCCCN)NC(=O)[C@H](CCCCN)NC(=O)[C@H](CC(C)C)NC(=O)[C@H](Cc1c[nH]c2ccccc12)NC(=O)[C@H](CCCCN)NC(=O)[C@@H](N)CC(C)C)C(N)=O` .
output: 1.42

====

Let's go through some recorded MIC values for Escherichia coli ATCC 25922 together.
Form entry: value (µM) — number only.

ITEM_SMILES: NCC(=O)N[C@@H](CCCN=C(N)N)C(=O)N[C@@H](CCCN=C(N)N)C(=O)N1CCC[C@H]1C(=O)N[C@@H](CCCN=C(N)N)C(=O)N1CCC[C@H]1C(=O)N[C@@H](CCCN=C(N)N)C(=O)N1CCC[C@H]1C(=O)N[C@@H](CCCN=C(N)N)C(=O)N1CCC[C@H]1C(=O)N[C@@H](Cc1c[nH]c2ccccc12)C(=O)N[C@@H](Cc1c[nH]c2ccccc12)C(=O)N[C@@H](Cc1c[nH]c2ccccc12)C(=O)N[C@@H](Cc1c[nH]c2ccccc12)C(N)=O
UNIT_OF_MEASUREMENT: µM
VALUE_OBSERVED: 20

Proceed to the following item.
input: Name the recorded MIC for `CC(C)C[C@H](NC(=O)[C@H](CCCCN)NC(=O)[C@H](CCCCN)NC(=O)[C@H](CC(C)C)NC(=O)[C@H](CC(C)C)NC(=O)[C@H](CCCCN)NC(=O)[C@H](CCCCN)NC(=O)[C@H](CC(C)C)NC(=O)[C@H](Cc1c[nH]c2ccccc12)NC(=O)[C@H](CCCCN)NC(=O)[C@@H](N)CC(C)C)C(N)=O` .
output: 2.84

====

# Test system: Salmonella enterica subsp. enterica serovar Typhimurium C77-31
MEASURED_ENDPOINT: MIC (µM)
Form entry: value (µM) — number only.

input: Give recorded MIC with Salmonella enterica subsp. enterica serovar Typhimurium C77-31 for the following compound: CC(C)C[C@H](NC(=O)[C@H](CCCN=C(N)N)NC(=O)[C@H](CCCCN)NC(=O)[C@H](Cc1c[nH]c2ccccc12)NC(=O)[C@@H](NC(=O)[C@H](CCCCN)NC(=O)[C@H](CCCCN)NC(=O)[C@H](Cc1c[nH]c2ccccc12)NC(=O)[C@H](CC(C)C)NC(=O)[C@H](CCCN=C(N)N)NC(=O)[C@@H](N)CCCN=C(N)N)[C@@H](C)O)C(=O)N[C@@H](Cc1c[nH]c2ccccc12)C(N)=O [RRLWKKTWKRLW]
output: 8

input: Give recorded MIC with Salmonella enterica subsp. enterica serovar Typhimurium C77-31 for the following compound: CC[C@H](C)[C@H](NC(=O)[C@H](CCCN=C(N)N)NC(=O)[C@H](CCCCN)NC(=O)[C@H](Cc1ccccc1)NC(=O)[C@H](CCC(=O)O)NC(=O)[C@H](CCCCN)NC(=O)CN)C(=O)N[C@H](C(=O)N[C@@H](CCCCN)C(=O)N[C@@H](Cc1c[nH]c2ccccc12)C(=O)N1CCC[C@H]1C(=O)N[C@@H](Cc1c[nH]c2ccccc12)C(=O)N[C@@H](Cc1c[nH]c2ccccc12)C(=O)N1CCC[C@H]1C(=O)N[C@@H](Cc1c[nH]c2ccccc12)C(=O)N[C@@H](CCCN=C(N)N)C(=O)N[C@@H](CCCN=C(N)N)C(N)=O)C(C)C [GKEFKRIVKWPWWPWRR]
output: 4

input: Give recorded MIC with Salmonella enterica subsp. enterica serovar Typhimurium C77-31 for the following compound: CC[C@H](C)[C@H](NC(=O)[C@H](CCCN=C(N)N)NC(=O)[C@H](C)NC(=O)[C@H](C)N)C(=O)N[C@H](C(=O)N[C@@H](CC(C)C)C(=O)N[C@@H](CCCN=C(N)N)C(=O)N[C@@H](CC(C)C)C(=O)N[C@@H](CCCN=C(N)N)C(=O)N[C@@H](Cc1ccccc1)C(=O)N[C@@H](CCCN=C(N)N)C(N)=O)[C@@H](C)CC [AARIILRLRFR]
output: 4
